Molecular target: human FXR (Homo sapiens)
Construct: characterized in a full-length (fl) FXR reporter gene assay in HeLa cells; expressed in transfected cells; host or cells: HeLa
Sequence (Q96RI1 1-486): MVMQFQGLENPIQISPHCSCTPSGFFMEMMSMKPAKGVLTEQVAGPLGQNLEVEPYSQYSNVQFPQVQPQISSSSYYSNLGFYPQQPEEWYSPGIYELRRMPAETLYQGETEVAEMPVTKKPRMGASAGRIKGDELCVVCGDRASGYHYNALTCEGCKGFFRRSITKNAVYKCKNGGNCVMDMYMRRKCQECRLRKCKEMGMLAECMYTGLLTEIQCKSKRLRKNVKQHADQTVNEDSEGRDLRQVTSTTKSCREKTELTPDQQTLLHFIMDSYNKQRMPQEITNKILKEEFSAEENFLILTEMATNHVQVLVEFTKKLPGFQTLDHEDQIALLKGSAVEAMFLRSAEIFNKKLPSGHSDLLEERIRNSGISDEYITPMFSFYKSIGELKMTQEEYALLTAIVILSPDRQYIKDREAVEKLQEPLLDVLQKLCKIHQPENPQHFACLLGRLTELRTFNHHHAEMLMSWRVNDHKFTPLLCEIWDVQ
Sequence (P19793 1-462 partner): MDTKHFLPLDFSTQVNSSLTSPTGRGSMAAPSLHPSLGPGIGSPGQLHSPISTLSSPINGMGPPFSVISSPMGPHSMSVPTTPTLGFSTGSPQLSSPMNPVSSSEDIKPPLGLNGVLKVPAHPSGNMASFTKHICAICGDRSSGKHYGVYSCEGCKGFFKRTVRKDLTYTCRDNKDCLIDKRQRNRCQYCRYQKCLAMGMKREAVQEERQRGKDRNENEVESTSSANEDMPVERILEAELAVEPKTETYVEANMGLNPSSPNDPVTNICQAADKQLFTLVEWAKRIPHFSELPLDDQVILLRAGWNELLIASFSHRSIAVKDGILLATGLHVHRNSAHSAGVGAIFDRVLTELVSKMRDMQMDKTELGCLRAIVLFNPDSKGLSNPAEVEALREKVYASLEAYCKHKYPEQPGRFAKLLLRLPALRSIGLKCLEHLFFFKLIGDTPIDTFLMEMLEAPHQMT
Assay: full-length FXR reporter gene (transactivation) assay in HeLa cells
Format: cell-based
Conditions: HeLa; read-out: FXR activation max. rel. activation (converted)
endpoint_label: Emax (%)

Study these solved cases before continuing.
| molecule | quantitative_readout |
| --- | --- |
| O=C(O)c1ccc(CNC(=O)c2ccc3ccccc3c2)cc1 [compound 17] | 18 |
| COc1ccc(C(=O)NCc2ccc(C(=O)O)cc2)cc1OC [compound 15] | 18 |

(I) CC(C)(C)c1ccc(C(=O)NCc2ccc(S(N)(=O)=O)cc2F)cc1 [compound 55]
(II) CC(C)(C)c1ccc(C(=O)NCc2ccc(OCC(=O)O)cc2)cc1 [compound 25]
(III) Cc1cc(CNC(=O)c2ccc(C(C)(C)C)cc2)ccc1C(=O)O [compound 26]
Q: Put the molecules in ascending order of Emax. Labels, requested order.
Ans: III, II, I

(a) CC(C)(C)c1ccc(C(=O)NCc2ccc(C(N)=O)cc2)cc1 [compound 37]
(b) CN(C)C(=O)c1ccc(CNC(=O)c2ccc(C(C)(C)C)cc2)cc1 [compound 39]
Q: Exercise: compare a and b ; which one has the greater Emax? Let me know the label of the one you choose.
Ans: a

====

Molecular target: recombinant human sEH (Homo sapiens)
Sequence (P34913 whole entry): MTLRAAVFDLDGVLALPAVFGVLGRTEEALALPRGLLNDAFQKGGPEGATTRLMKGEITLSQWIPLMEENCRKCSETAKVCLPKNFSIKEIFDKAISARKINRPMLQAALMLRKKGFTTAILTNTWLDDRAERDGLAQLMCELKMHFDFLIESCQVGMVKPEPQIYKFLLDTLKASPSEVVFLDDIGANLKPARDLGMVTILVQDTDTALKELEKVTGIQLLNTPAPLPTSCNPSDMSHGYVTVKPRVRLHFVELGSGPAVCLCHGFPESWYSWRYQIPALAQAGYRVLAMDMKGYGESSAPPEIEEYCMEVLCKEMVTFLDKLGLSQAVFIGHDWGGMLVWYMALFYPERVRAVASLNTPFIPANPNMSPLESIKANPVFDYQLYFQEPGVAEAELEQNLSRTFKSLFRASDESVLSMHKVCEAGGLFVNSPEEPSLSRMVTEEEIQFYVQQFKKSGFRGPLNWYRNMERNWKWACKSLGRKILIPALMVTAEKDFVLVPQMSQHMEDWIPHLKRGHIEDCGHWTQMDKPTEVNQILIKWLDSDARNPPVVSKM
Test: fluorescence-based sEH activity assay with PHOME substrate
Type: biochemical
Settings: read-out: IC50 for sEH inhibition
endpoint_label: pIC50
Entry type: numeric. Quantity: pIC50, the -log10 of concentration in molar units.

Q: Please tell me the measured pIC50 for CC(C)(C)c1ccc(C(=O)NCc2ccc(NS(C)(=O)=O)cc2Cl)cc1 ; system: recombinant human sEH (Homo sapiens).
Ans: 8.39

====

Biological target: human FXR (Homo sapiens, UniProt Q96RI1)
Construct: characterized in a full-length (fl) FXR reporter gene assay in HeLa cells
Assay: full-length FXR reporter gene (transactivation) assay in HeLa cells
Details: full-length FXR reporter gene assay, HeLa cells; read-out: FXR activation EC50
Description: This assay is based on a reporter construct containing a firefly luciferase under the control of the FXR response element from bile salt export protein (BSEP). […] The sEH inhibitory potency of the test compounds was quantified in a fluorescence-based assay using recombinant enzyme and the fluorogenic sEH substrate PHOME^37 that is hydrolyzed to a fluorescent 6-methoxynaphtaldehyde by sEH. […]
endpoint_label: EC50 (nM)

Reference set, count: 2
| structure_smiles | EC50 [nM] |
| --- | --- |
| CCS(=O)(=O)Nc1ccc(CNC(=O)c2ccc(C(C)(C)C)cc2)c(Cl)c1 | 490 |
| CC(C)S(=O)(=O)Nc1ccc(CNC(=O)c2ccc(C(C)(C)C)cc2)c(Cl)c1 | 420 |

(I) CN(C)c1ccc(C(=O)NCc2ccc(NS(C)(=O)=O)cc2Cl)cc1
(II) CS(=O)(=O)Nc1ccc(CNC(=O)c2ccc(C3(C(F)(F)F)CC3)cc2)c(Cl)c1
(III) CC(C)(C)c1ccc(C(=O)NCc2ccc(NS(C)(=O)=O)cc2Cl)cc1O
Q: Sort entries by EC50 from minimum to maximum value. Could you list the labels in the order requested?
Ans: III, II, I

====

Molecular target: human FXR (Homo sapiens)
Construct: characterized in a full-length (fl) FXR reporter gene assay in HeLa cells; expressed in transfected cells; host or cells: HeLa
Sequence (Q96RI1 1-486): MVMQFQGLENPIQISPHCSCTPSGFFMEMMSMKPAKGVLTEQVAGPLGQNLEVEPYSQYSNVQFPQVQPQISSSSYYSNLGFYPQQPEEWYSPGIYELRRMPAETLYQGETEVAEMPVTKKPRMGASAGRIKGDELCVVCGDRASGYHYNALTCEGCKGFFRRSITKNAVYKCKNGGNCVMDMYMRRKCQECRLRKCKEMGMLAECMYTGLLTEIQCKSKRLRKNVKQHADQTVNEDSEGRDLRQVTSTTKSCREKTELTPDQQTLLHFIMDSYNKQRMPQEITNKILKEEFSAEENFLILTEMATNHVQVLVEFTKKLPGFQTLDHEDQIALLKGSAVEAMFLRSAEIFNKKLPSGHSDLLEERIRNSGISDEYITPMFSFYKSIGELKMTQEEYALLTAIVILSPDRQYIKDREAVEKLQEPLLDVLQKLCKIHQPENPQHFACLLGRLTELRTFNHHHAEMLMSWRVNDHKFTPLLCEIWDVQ
Sequence (P19793 1-462 partner): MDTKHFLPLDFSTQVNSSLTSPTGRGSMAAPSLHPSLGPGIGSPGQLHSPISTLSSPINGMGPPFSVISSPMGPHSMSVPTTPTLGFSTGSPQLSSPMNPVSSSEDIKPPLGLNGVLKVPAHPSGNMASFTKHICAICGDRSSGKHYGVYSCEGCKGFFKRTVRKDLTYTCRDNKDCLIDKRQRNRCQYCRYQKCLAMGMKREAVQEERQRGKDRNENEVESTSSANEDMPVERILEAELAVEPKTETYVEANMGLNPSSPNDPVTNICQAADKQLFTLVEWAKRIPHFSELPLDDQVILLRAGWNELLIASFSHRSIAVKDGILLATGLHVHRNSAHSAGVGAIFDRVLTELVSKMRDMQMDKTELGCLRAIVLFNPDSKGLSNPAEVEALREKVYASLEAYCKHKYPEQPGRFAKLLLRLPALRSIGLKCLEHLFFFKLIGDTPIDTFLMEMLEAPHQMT
Experiment: full-length FXR reporter gene (transactivation) assay in HeLa cells
Format: cell-based
Settings: HeLa; read-out: FXR activation max. rel. activation (converted)
endpoint_label: Emax (%)

| compound | quantitative_readout |
| --- | --- |
| CC(C)(C)c1ccc(C(=O)NCc2ccc(N)cc2Cl)cc1 [69a] | 29 |
| CN(C)c1ccc(C(=O)NCc2ccc(NS(C)(=O)=O)cc2Cl)cc1 | 23 |
| CSc1ccc(CNC(=O)c2ccc(C(C)(C)C)cc2)cc1 | 33 |
| CC(C)(C)c1ccc(C(=O)NCc2ccc(NS(C)(=O)=O)cc2C(F)(F)F)cc1 | 19 |

(1) COc1cc(C(=O)NCc2ccc(C(=O)O)cc2)ccc1C(C)(C)C
(2) O=C(O)c1ccc(CNC(=O)c2cccc(-c3ccccc3)c2)cc1
Q: # min-compare on Emax between 1 and 2 Give the label of your selection.
Ans: 2

(a) CC(C)(C)c1ccc(C(=O)NCc2ccc(S(C)(=O)=O)cc2)cc1
(b) CC(C)(C)c1ccc(C(=O)NCc2cccc(C(=O)O)c2)cc1
Q: Could you tell me which of a and b has the lower Emax reading? Answer format: the label of the selected item.
Ans: b

(a) CC(NC(=O)c1ccc(C(C)(C)C)cc1)c1ccc(C(=O)O)cc1 (stereo not shown)
(b) CC(C)(C)c1ccc(C(=O)NCc2ccc(S(N)(=O)=O)cc2)cc1
Q: Pick one: a or b . Which has the bigger Emax number? Refer to your chosen entry by its label in the reply.
Ans: a

(I) CC(C)(C)c1ccc(C(=O)NCc2ccc(NS(C)(=O)=O)cc2)cc1
(II) CC(C)(C)c1ccc(C(=O)NCc2ccc(C(=O)O)cc2)cc1
Q: Out of I and II , name the one with the higher Emax. State your choice using its label.
Ans: I
(I: 22%, II: 13%)
